B1: NF2 (merlin) isoform 7, human, full length (507 aa, lacks exons 2-3 = isoform-1 residues 39-121; exon-16 C-terminus), P35240-4 (parent)
chain: MAGAIASRMSFSSLKRKQPKTFTVRIVTMDAEMEFNCEVKKQILDEKIYCPPEASVLLASYAVQAKYGDYDPSVHKRGFLAQEELLPKRVINLYQMTPEMWEERITAWYAEHRGRARDEAEMEYLKIAQDLEMYGVNYFAIRNKKGTELLLGVDALGLHIYDPENRLTPKISFPWNEIRNISYSDKEFTIKPLDKKIDVFKFNSSKLRVNKLILQLCIGNHDLFMRRRKADSLEVQQMKAQAREEKARKQMERQRLAREKQMREEAERTRDELERRLLQMKEEATMANEALMRSEETADLLAEKAQITEEEAKLLAQKAAEAEQEMQRIKATAIRTEEEKRLMEQKVLEAEVLALKMAEESERRAKEADQLKQDLQEAREAERRAKQKLLEIATKPTYPPMNPIPAPLPPDIPSFNLIGDSLSFDFKDTDMKRLSMEIEKEKVEYMEKSKHLQEQLNELKTEIEALKLKERETALDILHNENSDRGGSSKHNTIKKPQAQGRRPICI

Variants of: B1
Test: reverse yeast two-hybrid deep mutational scan (rY2H-seq): NF2 isoform 7 mutant library as bait mated with wild-type prey strains; selection on medium lacking adenine for non-interacting pairs; NextSeq paired-end sequencing; enrichment vs …
Details: with KDM1A (lysine-specific histone demethylase 1A; the table's label AOF2 is a gene synonym of KDM1A), O60341; yeast diploids after mating (RBait_S3 x RPrey_S3), 30 °C, selection for reporter genes on NB agar; human ABL2 co-expressed as the kinase-dead K35M mutant …; HIGHER = WEAKER BINDING (the opposite of display enrichments): higher = stronger loss of interaction: reverse Y2H selects yeast in which bait and prey do NOT interact (growth without adenine), so a …; hits-only table; scale: rY2H score; numbering: uniprot, sequence starts at 1
attribute measured: enrichment

D476E 2.39
I334K 2.46
H75E 2.15
